Origin of measurements: ChEMBL document CHEMBL1145175

# Target Under Test: Estrogen receptor beta (Homo sapiens, UniProt Q92731)
# Sequence (Q92731 whole entry): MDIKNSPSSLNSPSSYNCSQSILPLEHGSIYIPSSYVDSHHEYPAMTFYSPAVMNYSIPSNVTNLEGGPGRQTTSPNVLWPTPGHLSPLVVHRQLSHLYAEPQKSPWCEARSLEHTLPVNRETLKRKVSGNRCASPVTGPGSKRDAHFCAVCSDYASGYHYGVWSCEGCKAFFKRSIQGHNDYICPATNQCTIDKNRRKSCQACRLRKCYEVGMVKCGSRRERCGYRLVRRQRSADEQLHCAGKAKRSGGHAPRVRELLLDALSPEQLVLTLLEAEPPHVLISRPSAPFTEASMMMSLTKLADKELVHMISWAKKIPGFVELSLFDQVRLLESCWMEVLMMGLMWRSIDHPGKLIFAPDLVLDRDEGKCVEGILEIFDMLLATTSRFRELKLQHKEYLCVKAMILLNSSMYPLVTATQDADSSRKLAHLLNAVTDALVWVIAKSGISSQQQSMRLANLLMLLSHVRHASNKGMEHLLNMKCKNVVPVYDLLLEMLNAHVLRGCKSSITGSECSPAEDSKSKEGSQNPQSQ
# Test Method Notes: Inhibition of estrogen receptor beta at 10 uM
Readout Label: pIC50
Give bare numbers, as −log10 of the molar value.

input: Respond only with pIC50 recorded for CCC1=N[C@H](c2ccc(OCCN3CCCCC3)cc2)[C@H](c2ccc(O)cc2)N1
output: 5.05

----------
Please go through the items and note down their inhibition.
# Target Under Test: Estrogen receptor beta (Homo sapiens, UniProt Q92731)
# Test Method Notes: Percent inhibition of 0.30 nM estradiol activity on estrogen receptor beta in MCF-7-2a cells at 10 uM
# Format: cell-based
# Experimental Context: in the assay text read “U-2 OS cells” for “MCF-7-2a cells”
Numbers only, in %.

CN(C)CCOc1ccc([C@H]2N=CN[C@H]2c2ccc(O)cc2)cc1    0

Fill in inhibition for each of the 3 compounds listed.
1. Oc1ccc([C@@H]2N=CN[C@@H]2c2ccc(OCCN3CCCCC3)cc2Cl)c(Cl)c1
2. Oc1ccc([C@@H]2N=CN[C@@H]2c2ccc(OCCN3CCCC3)cc2Cl)c(Cl)c1
3. Oc1cc(Cl)c([C@@H]2N=CN[C@@H]2c2ccc(OCCN3CCCCC3)cc2Cl)c(Cl)c1

output:
1: 0; 2: 30; 3: 0

# map each compound to its inhibition
1. Oc1ccc([C@@H]2N=CN[C@@H]2c2ccc(OCCN3CCCCC3)cc2)cc1
2. CN(C)CCOc1ccc([C@H]2N=CN[C@H]2c2ccc(O)cc2Cl)c(Cl)c1

output:
12
4
